Target: T1, mfNPR1-mFc (monkey)
T1 construct: also called dimeric monkey NPR1
T1 chain: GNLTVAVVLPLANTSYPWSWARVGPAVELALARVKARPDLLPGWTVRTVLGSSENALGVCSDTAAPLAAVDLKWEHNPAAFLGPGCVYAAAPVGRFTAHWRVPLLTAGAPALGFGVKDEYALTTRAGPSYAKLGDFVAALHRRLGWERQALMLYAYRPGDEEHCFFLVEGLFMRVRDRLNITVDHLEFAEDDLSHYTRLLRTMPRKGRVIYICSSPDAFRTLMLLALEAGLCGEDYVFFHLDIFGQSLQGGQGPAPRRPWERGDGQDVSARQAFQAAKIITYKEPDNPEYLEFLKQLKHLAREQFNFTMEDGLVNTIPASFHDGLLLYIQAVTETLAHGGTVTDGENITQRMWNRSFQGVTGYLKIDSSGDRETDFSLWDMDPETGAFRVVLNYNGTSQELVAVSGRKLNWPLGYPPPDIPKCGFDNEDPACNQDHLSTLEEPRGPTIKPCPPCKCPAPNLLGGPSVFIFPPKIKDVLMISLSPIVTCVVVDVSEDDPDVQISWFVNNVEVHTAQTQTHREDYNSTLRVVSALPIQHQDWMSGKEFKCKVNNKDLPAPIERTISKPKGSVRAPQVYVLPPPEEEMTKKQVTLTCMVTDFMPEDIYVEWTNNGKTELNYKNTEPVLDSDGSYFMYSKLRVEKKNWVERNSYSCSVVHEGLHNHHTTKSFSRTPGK
Test: SPR, mAb captured, 25C
Each record here notes measured 100 nM Ag Bound (RU).

{"BINDER": "mAb25491 (antibody, human IgG4, V domains shown) VH: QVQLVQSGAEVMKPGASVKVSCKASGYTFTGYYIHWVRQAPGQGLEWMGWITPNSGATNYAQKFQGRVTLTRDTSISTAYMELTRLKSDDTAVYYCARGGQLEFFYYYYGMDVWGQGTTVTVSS VL: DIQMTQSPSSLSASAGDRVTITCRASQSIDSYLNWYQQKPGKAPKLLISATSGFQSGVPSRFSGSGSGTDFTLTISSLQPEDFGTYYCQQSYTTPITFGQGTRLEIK", "100 nM Ag Bound (RU)": 81}
{"BINDER": "mAb25497 (antibody, human IgG4, V domains shown) VH: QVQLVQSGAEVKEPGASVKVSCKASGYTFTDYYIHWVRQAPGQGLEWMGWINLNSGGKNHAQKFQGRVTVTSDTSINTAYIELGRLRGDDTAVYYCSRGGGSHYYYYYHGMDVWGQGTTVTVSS VL: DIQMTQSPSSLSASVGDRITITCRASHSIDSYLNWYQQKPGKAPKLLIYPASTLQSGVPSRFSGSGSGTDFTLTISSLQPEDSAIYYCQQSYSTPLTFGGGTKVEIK", "100 nM Ag Bound (RU)": 76}
{"BINDER": "mAb22809 (antibody, human IgG4, V domains shown) VH: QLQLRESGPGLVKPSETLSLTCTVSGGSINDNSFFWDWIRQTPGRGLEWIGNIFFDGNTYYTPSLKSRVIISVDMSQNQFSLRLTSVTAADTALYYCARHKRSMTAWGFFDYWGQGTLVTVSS VL: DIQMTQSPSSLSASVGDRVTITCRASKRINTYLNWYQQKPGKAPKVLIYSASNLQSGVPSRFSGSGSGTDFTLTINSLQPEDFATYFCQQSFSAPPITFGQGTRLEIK", "100 nM Ag Bound (RU)": 6}
{"BINDER": "mAb25508 (antibody, human IgG4, V domains shown) VH: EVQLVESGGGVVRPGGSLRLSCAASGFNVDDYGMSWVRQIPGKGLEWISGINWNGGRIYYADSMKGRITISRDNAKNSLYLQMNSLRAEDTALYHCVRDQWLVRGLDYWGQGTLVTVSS VL: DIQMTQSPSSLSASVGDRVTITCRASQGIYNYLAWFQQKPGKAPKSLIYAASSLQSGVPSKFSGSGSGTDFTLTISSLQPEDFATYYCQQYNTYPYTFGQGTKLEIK", "100 nM Ag Bound (RU)": 230}
